B1: SPSB1 (parent)
chain: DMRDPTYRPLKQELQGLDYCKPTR

Variants of: B1
Test: protein stability index of a GFP-peptide fusion (GPS, HEK-293T) (PSI 1-6); higher = more stable;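 also: lentivirally expressed fusions sorted by FACS into six bins by GFP to DsRed ratio, PSI derived from sequencing read proportions per bin multiplied by bin number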
Details: c terminus: a fixed tail appended
Short version: protein stability index at least 3 is 1, less is 0.

{"Mutant Label": "L10N", "Group Label": 1}
{"Mutant Label": "D4P", "Group Label": 0}
{"Mutant Label": "P5M", "Group Label": 1}
{"Mutant Label": "L17I", "Group Label": 1}
{"Mutant Label": "P9A", "Group Label": 0}
{"Mutant Label": "D4L", "Group Label": 0}
{"Mutant Label": "L14C", "Group Label": 1}
{"Mutant Label": "Y7C", "Group Label": 1}
{"Mutant Label": "L10M", "Group Label": 1}
{"Mutant Label": "R3C", "Group Label": 0}
